- target_system: ATP-dependent translocase ABCB1 (Homo sapiens)
- Sequence (P08183 whole entry): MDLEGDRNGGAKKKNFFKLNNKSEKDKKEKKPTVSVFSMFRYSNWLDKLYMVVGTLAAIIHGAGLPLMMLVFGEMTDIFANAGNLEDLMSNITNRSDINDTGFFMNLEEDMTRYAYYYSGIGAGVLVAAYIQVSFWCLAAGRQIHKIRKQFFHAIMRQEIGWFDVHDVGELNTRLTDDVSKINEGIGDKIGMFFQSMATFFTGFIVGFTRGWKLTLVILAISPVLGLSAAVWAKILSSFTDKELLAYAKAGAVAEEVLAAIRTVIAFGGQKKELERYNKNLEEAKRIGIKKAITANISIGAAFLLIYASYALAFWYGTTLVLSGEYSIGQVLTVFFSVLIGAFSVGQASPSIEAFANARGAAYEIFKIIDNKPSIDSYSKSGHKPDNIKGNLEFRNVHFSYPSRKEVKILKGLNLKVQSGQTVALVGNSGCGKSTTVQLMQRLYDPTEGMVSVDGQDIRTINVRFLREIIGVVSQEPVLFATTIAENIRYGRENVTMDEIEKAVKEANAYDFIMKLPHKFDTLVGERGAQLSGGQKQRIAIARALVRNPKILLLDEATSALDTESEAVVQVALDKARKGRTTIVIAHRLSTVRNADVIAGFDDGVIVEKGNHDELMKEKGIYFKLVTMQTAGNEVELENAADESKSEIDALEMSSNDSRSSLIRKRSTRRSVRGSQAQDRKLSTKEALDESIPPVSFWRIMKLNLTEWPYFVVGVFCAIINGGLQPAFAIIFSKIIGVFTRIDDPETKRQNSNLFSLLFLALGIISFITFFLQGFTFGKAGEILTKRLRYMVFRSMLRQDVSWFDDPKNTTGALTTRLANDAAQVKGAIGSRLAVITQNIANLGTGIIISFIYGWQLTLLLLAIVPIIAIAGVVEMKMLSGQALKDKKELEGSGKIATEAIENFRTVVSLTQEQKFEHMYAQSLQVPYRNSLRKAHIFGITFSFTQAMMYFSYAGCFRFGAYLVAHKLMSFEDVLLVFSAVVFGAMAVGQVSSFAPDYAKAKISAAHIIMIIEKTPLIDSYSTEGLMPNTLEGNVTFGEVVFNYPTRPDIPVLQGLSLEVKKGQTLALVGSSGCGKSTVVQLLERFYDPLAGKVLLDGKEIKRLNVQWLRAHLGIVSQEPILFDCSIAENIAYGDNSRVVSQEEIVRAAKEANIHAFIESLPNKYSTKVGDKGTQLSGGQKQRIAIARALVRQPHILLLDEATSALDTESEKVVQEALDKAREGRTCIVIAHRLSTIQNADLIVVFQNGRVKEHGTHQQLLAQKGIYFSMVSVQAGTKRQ
- test_description: Reversal of P-gp-mediated multidrug resistance in human KBV cells assessed as potentiation of paclitaxel-induced cytotoxicity by measuring cell survival at 5 uM after 72 hrs by MTT assay (reference value: 100.58 +/- 7.78%)
- Assay type: cell-based
Consider the following compounds and their measured Survival readings.
endpoint_label: Survival (%)

# compound, endpoint_label, unit_info, quantitative_readout
measured = [
    ("COc1ccc(CCN(C)CCCC(C#N)(c2ccc(OC)c(OC)c2)C(C)C)cc1OC (centres undefined)", "Survival", "%", 23.05),
    ("CC(=O)O[C@H]1C[C@@]2(C)[C@@H](C[C@@H](O)[C@H]3[C@@]4(C)CC[C@@H](OC(=O)c5ccccc5C(=O)Oc5ccc(CCO[N+](=O)[O-])cc5)[C@@H](C)[C@@H]4CC[C@@]32C)/C1=C(\\CCC=C(C)C)C(=O)OCc1ccccc1", "Survival", "%", 75.04),
    ("CC(=O)O[C@H]1C[C@@]2(C)[C@@H](C[C@@H](O)[C@H]3[C@@]4(C)CC[C@@H](OC(=O)CCC(=O)N5CCCCC5)[C@@H](C)[C@@H]4CC[C@@]32C)/C1=C(\\CCC=C(C)C)C(=O)OCc1ccccc1", "Survival", "%", 35.31),
    ("CC(=O)O[C@H]1C[C@@]2(C)[C@@H](C[C@@H](O)[C@H]3[C@@]4(C)CC[C@@H](OC(=O)c5ccccc5C(=O)Nc5cccc(N)c5)[C@@H](C)[C@@H]4CC[C@@]32C)/C1=C(\\CCC=C(C)C)C(=O)OCc1ccccc1", "Survival", "%", 29.28),
    ("CC(=O)O[C@H]1C[C@@]2(C)[C@@H](C[C@@H](O)[C@H]3[C@@]4(C)CC[C@@H](OC(=O)c5ccccc5C(=O)OCCc5ccc(OCCO[N+](=O)[O-])cc5)[C@@H](C)[C@@H]4CC[C@@]32C)/C1=C(\\CCC=C(C)C)C(=O)OCc1ccccc1", "Survival", "%", 90.45),
    ("CC(=O)O[C@H]1C[C@@]2(C)[C@@H](C[C@@H](O)[C@H]3[C@@]4(C)CC[C@@H](OC(=O)CCC(=O)N5CCOCC5)[C@@H](C)[C@@H]4CC[C@@]32C)/C1=C(\\CCC=C(C)C)C(=O)OCc1ccccc1", "Survival", "%", 31.93),
    ("CC(=O)O[C@H]1C[C@@]2(C)[C@@H](C[C@@H](O)[C@H]3[C@@]4(C)CC[C@@H](OC(=O)CCC(=O)Oc5ccc(CCO[N+](=O)[O-])cc5)[C@@H](C)[C@@H]4CC[C@@]32C)/C1=C(\\CCC=C(C)C)C(=O)OCc1ccccc1", "Survival", "%", 99.95),
    ("CC(=O)O[C@H]1C[C@@]2(C)[C@@H](C[C@@H](O)[C@H]3[C@@]4(C)CC[C@@H](OC(=O)CCC(=O)OCCc5ccc(OCCO[N+](=O)[O-])cc5)[C@@H](C)[C@@H]4CC[C@@]32C)/C1=C(\\CCC=C(C)C)C(=O)OCc1ccccc1", "Survival", "%", 101.31),
    ("CC(=O)O[C@H]1C[C@@]2(C)[C@@H](C[C@@H](O)[C@H]3[C@@]4(C)CC[C@@H](OC(=O)c5ccccc5C(=O)N5CCOCC5)[C@@H](C)[C@@H]4CC[C@@]32C)/C1=C(\\CCC=C(C)C)C(=O)OCc1ccccc1", "Survival", "%", 37.96),
]

----------
Consider the following compounds and their measured viability at 72 h, 5 µM readings.
- test_description: Cytotoxicity against human KBV cells assessed as cell survival at 5 uM after 72 hrs by MTT assay relative to control
- Assay type: cell-based
- settings: read-out: Survival

# chemical_string, unit_info, viability at 72 h, 5 µM
rows = [
    ("CC(=O)O[C@H]1C[C@@]2(C)[C@@H](C[C@@H](O)[C@H]3[C@@]4(C)CC[C@@H](O)[C@@H](C)[C@@H]4CC[C@@]32C)/C1=C(\\CCC=C(C)C)C(=O)Oc1ccc(CCO[N+](=O)[O-])cc1", "%", 83.7),
    ("CC(=O)O[C@H]1C[C@@]2(C)[C@@H](C[C@@H](O)[C@H]3[C@@]4(C)CC[C@@H](OC(=O)CCCCO[N+](=O)[O-])[C@@H](C)[C@@H]4CC[C@@]32C)/C1=C(\\CCC=C(C)C)C(=O)OCc1ccccc1", "%", 107),
    ("CC(=O)O[C@H]1C[C@@]2(C)[C@@H](C[C@@H](O)[C@H]3[C@@]4(C)CC[C@@H](OC(=O)c5ccccc5C(=O)N5CCN(C)CC5)[C@@H](C)[C@@H]4CC[C@@]32C)/C1=C(\\CCC=C(C)C)C(=O)OCc1ccccc1", "%", 100),
    ("CC(=O)O[C@H]1C[C@@]2(C)[C@@H](C[C@@H](O)[C@H]3[C@@]4(C)CC[C@@H](OC(=O)c5ccccc5C(=O)N5CCOCC5)[C@@H](C)[C@@H]4CC[C@@]32C)/C1=C(\\CCC=C(C)C)C(=O)OCc1ccccc1", "%", 76),
]
